# measurementTarget: ZFP SBS#1043 (synthetic)
# Sequence (chain, as listed by the source): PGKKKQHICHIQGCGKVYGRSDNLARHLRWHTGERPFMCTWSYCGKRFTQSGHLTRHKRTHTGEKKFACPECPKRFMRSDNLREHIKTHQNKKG
# testDescription: EMSA
# cond: tags: MBP fusion
measureName: Kd

Task item: GET /values?readout=Kd&item= CAGGGAGAG (dsDNA) DNA 1: CAGGGAGAG DNA 2: CTCTCCCTG
Reply: 0.16 nM

The reported measurements were obtained from patent US20030068675.
